target: GlcNAc(b1-3)[GlcNAc(b1-6)]GlcNAc(b1-4)GlcNAc; test: glycan array binding signal (z-score within array); higher = stronger binding; conditions: glycan notation: IUPAC condensed, linker removed
About 410 targets per protein were measured; listed, in parts, are those with the strongest signals and a random draw of the rest.
glycan array binding signal (z-score) by entry:
Lab note: jot the number down without any unit.

Use the examples below as a reference point.
# binder, glycan array binding signal (z-score)
records = [
    ("NcCVNHO (Neurospora crassa), Q7S6U4 (protein) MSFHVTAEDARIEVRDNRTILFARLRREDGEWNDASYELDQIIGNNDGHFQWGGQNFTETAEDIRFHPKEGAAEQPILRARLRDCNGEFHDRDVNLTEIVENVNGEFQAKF", -0.297),
    ("Gal 2 (Homo sapiens), P05162 (protein) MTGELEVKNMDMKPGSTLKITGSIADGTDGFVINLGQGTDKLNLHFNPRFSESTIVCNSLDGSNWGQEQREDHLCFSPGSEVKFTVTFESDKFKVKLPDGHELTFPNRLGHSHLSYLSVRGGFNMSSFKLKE", -0.396),
    ("ECA (Erythrina cristagalli), P83410 (protein) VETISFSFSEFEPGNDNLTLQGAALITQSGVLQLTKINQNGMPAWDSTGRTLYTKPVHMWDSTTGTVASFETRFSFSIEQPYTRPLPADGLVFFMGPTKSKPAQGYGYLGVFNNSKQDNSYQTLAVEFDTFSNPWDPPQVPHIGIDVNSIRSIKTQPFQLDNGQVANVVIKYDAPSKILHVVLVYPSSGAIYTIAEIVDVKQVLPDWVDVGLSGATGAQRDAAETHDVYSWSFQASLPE", -0.277),
    ("HHA (Hippeastrum hybrid) (protein) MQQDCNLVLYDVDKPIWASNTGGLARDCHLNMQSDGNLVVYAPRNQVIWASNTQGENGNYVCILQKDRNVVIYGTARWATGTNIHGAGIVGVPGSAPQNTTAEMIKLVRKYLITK", -0.264),
]

// next item, glycan array binding signal (z-score) requested
Query string: Output measured glycan array binding signal (z-score) for this item: CTMLA2 (Anopheles gambiae), Q7Q7F8 (protein) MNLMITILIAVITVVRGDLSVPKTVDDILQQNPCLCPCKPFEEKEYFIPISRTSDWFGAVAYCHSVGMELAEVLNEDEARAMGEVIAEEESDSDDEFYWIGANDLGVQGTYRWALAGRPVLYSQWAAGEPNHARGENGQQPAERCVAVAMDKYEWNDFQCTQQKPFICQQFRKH
Result string: 0.928
